tested_system: Carbonic anhydrase 2 (Homo sapiens)
assay_method_text: CAII small-molecule binders, profiling panel, biochemical, small-molecule microarray, Alexa647-labelled CAII (AID 1122)
reported_conditions: CAII-A647 binding fluorescence, higher = more signal
quantity: composite z-score
Answer field: number only, no words.

compound	tested_system	data_value
CCCC[C@@H]1C[C@H]1[C@@H](NC(=O)c1ccco1)c1ccc(Cl)cc1	Carbonic anhydrase 2 (Homo sapiens)	0.637
CC(C)(C)OC(=O)CC[C@@]1(C(=O)NCC(O)CO)N=C(c2ccc(OCCCO)cc2)O[C@@H]1c1ccccc1N=[N+]=[N-] (some centres not stated)	Carbonic anhydrase 2 (Homo sapiens)	0.741
CCN(CC)c1ccc(N2CC=CC34O[C@@H]5/C=C\CCC(C)OC(=O)C5[C@H]3C(=O)N(C(CO)C(C)C)[C@@H]4C2=O)cc1 (some centres not stated)	Carbonic anhydrase 2 (Homo sapiens)	0.894
CC1CC/C=C\[C@H]2OC34C=CCN(Cn5nnc6ccccc65)C(=O)[C@H]3N(C(CO)C(C)C)C(=O)[C@@H]4C2C(=O)O1 (some centres not stated)	Carbonic anhydrase 2 (Homo sapiens)	0.662
C=C(COC)/C(=C/C[C@@H](OC(C)=O)c1ccc(CO)o1)c1cnc2ccccc2c1	Carbonic anhydrase 2 (Homo sapiens)	0.944

For the compound shown here, `C=CCNC(=O)[C@@H]1[C@H]2C(=O)O[C@H](c3ccccc3)[C@H](c3ccccc3)N2[C@H](c2ccccc2OCCO)[C@@]12C(=O)N(C(=O)OCCOC)c1ccc(C#CCNC(N)=O)cc12` , give the reported composite z-score.
0.247

For the compound shown here, `C=CCOC(=O)[C@H]1[C@@H]2C(=O)O[C@@H](c3ccccc3)[C@@H](c3ccccc3)N2[C@@H](c2ccc(OCCOC(=O)[C@H]3C[C@H]4C(=O)N[C@@H](CC(C)C)C(=O)N4[C@H]3c3ccc(O)cc3)cc2)[C@]12C(=O)Nc1ccc(I)cc12` , give the reported composite z-score.
0.597

For the compound shown here, Cc1ccc(C(C)CC(O)C2C=CC3C(=O)N(c4ccccc4)C(=O)C3N2Nc2ccc([N+](=O)[O-])cc2)o1 (configuration not stated) , give the reported composite z-score.
0.788

For the compound shown here, `Cc1ccc(S[C@]2(C(=O)NC3CC3)CC(=O)N(C3Cc4ccccc4C3)[C@@H]2c2ccc(CO)cc2)cc1` , give the reported composite z-score.
0.628

For the compound shown here, `COc1ccc(CCN2C(=O)[C@@]3(c4ccc([N+](=O)[O-])cc4)CC(=O)N(C4CCCCC4)[C@@H]3c3ccc(CO)cc32)cc1` , give the reported composite z-score.
0.257

For the compound shown here, `C=CCNC(=O)[C@@H]1[C@H]2C(=O)O[C@H](c3ccccc3)[C@H](c3ccccc3)N2[C@H](c2ccc(OCCO)cc2)[C@@]12C(=O)Nc1ccc(C#Cc3ccc(OC)cc3)cc12` , give the reported composite z-score.
0.331

For the compound shown here, `CCc1oc(CC[C@@H](CO)NC(=O)NCCn2cc(C3(O)CCCCC3)nn2)c(C(=O)OC)c1C(=O)OC` , give the reported composite z-score.
-0.0227

* * *

System: Sam68 (KHDRBS1)
assay_method_text: Sam68 small-molecule binders, primary screen, biochemical, small-molecule microarray, 635 nm fluorescence (AID 1125);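 further: score merges 667 nm channel intensity with signal to noise over triplicate slides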
reported_conditions: small-molecule microarray binding, higher = more signal
Decide using composite z-score: a value greater than or equal to 1 is True, a smaller one is False.

Answered examples (2):
molecule	qualitative_label
CC(=O)n1cc(C(O)C2C=CC3C(=O)N(C)C(=O)C3N2Nc2ccccc2)c2ccccc21 (stereo not drawn)	True
COC(=O)[C@@]1(Cc2ccccc2)[C@H]2c3cc(C(=O)N4CCCC4)n(Cc4cccc5ccccc45)c3C[C@H]2CN1C(=O)c1ccccc1	False

Is composite z-score at least 1? Consider CCOc1cc(C(O)C2C=CC3C(=O)N(c4ccccc4)C(=O)C3N2Nc2ccccc2)ccc1O (stereo not drawn)
False

Is composite z-score at least 1? Consider CN1C(=O)C2C=CC(C(O)C3CCCCC3)N(Nc3ccc([N+](=O)[O-])cc3[N+](=O)[O-])C2C1=O (stereo not drawn)
True

Is composite z-score at least 1? Consider `CCOC(=O)C[C@H]1[C@H](OC(=O)c2ccc(C(=O)c3ccccc3)cc2)[C@@H](NC(=O)c2ccc(-c3ccccc3)cc2)c2cc(OCCCO)ccc2N1C(=O)c1ccccc1`
True

Is composite z-score at least 1? Consider `COc1ccc([Si](C)(C)[C@H]2[C@H](CC(=O)N3Cc4ccccc4C[C@H]3CO)O[C@@]3(C(=O)N(Cc4ccc(N5CCC5=O)cc4)c4ccccc43)[C@@H]2C)cc1`
True

Is composite z-score at least 1? Consider `COc1ccc(CCNC(=O)[C@@]2(Sc3ccc(C)cc3)CC(=O)N(C3CCCCC3)[C@@H]2c2ccc(CO)cc2I)cc1`
True

Is composite z-score at least 1? Consider `COC(=O)[C@@]1(Cc2ccc(F)cc2)[C@H]2c3cc(C(=O)N(C)C)n(Cc4nc5ccccc5[nH]4)c3C[C@H]2CN1C(=O)c1ccccc1`
False

Is composite z-score at least 1? Consider `CC(C)(C)C(=O)N[C@@H](c1ccc(Cl)cc1)[C@]1(C)C[C@H]1C1CCCCC1`
True

Is composite z-score at least 1? Consider `CC(=O)NCCCC[C@@H]1NC(=O)[C@@H]2C[C@H](C(=O)NCCCCCCNC(=O)CS)[C@H](c3cccc(OCCO)c3)N2C1=O`
False

Is composite z-score at least 1? Consider `C[N+](C)(C)CCCCNC(=O)[C@H]1C[C@H]2C(=O)N[C@@H](Cc3ccccc3)C(=O)N2[C@H]1c1ccc(O)cc1`
False

Is composite z-score at least 1? Consider `CC(C)C[C@@H]1NC(=O)[C@@H]2C[C@H](C(=O)NCCCCCN)[C@H](c3cccc(OCCO)c3)N2C1=O`
False

* * *

assay_method_text: P. aeruginosa biofilm formation inhibitors, primary screen, PAO1 strain, BacTiter-Glo luminescence, LB-PBS (AID 1144)
reported_conditions: 12 h, higher = more signal
Catalogue of compounds with associated z-score
Answer field: number only, no words.

compound	data_value
CCCC[C@@H]1C[C@H]1[C@@H](NC(=O)c1ccco1)c1ccc(Cl)cc1	0.564
COC(=O)[C@@]1(Cc2ccc(F)cc2)[C@H]2c3cc(C(=O)N4CCCC4)n(Cc4cc(C)n(C)n4)c3C[C@H]2CN1C(=O)c1ccccc1	-0.132
CCN(CC)c1ccc(N2CC=CC34O[C@@H]5/C=C\CCCOC(=O)C5[C@H]3C(=O)N(CCO)[C@@H]4C2=O)cc1 (some centres not stated)	0.0243

Would you kindly look at the next entry?
For the compound shown here, `COC(=O)[C@@]1(Cc2ccc(F)cc2)[C@H]2c3cc(C(=O)N(C)C)n(Cc4nc5ccccc5[nH]4)c3C[C@H]2CN1C(=O)c1ccccc1` , give the reported z-score.
0.528

* * *

tested_system: Luciferin 4-monooxygenase (Photinus pyralis) (UniProt P08659)
Sequence (P08659 whole entry, looked up): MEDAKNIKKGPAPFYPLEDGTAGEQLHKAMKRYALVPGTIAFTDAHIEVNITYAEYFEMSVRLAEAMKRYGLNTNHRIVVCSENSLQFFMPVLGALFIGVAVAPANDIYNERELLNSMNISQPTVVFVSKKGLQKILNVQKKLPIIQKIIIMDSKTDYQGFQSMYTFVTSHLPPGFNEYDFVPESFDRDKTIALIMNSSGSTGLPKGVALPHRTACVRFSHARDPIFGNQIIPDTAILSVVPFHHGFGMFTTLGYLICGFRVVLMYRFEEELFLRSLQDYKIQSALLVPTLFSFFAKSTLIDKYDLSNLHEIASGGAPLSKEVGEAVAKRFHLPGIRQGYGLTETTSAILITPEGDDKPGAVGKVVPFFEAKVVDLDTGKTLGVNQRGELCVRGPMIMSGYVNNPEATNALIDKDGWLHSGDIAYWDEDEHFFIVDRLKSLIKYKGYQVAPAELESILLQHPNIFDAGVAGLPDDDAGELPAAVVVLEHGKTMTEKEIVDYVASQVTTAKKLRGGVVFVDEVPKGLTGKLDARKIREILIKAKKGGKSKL
assay_method_text: firefly luciferase enzyme inhibitors, primary screen, biochemical, luminescence, purified enzyme, 2006 set (AID 1141);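 further: cell-free assay with purified firefly luciferase at 100 ng per well in PBS; test concentration not given here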
reported_conditions: SteadyGlo luminescence, 30 min, higher = more signal, called active from +8 up or from −8 down
Decide using z-score: a value greater than or equal to -0.4 is Y, a smaller one is N.

Answered examples (10):
compound	qualitative_label
CC(C)(C)OC(=O)CC[C@]1(C(=O)O)N=C(c2ccc(OCCCO)cc2)O[C@H]1c1ccccc1N=[N+]=[N-]	N
COCCCN1C(=O)[C@@]2(Cc3ccccc31)c1ccccc1C(=O)N(Cc1ccccc1C(F)(F)F)[C@H]2c1ccc(CO)cc1	Y
COc1ccc(C(O)C2C=CC3C(=O)NC(=O)C3N2Nc2ccccn2)cc1 (stereo not drawn)	N
CC(=O)n1cc(C(O)C2C=CC3C(=O)N(C)C(=O)C3N2Nc2ccccc2)c2ccccc21 (stereo not drawn)	Y
CCOC(=O)C=Cc1cc([N+](=O)[O-])ccc1O	Y
C=CCNC(=O)[C@H]1[C@@H]2C(=O)O[C@@H](c3ccccc3)[C@@H](c3ccccc3)N2[C@@H](c2ccccc2OCCO)[C@]12C(=O)Nc1ccc(C#CC3=CCCCC3)cc12	N
Cc1ccc(S[C@]2(C(=O)NCCN3CCOCC3)CC(=O)N(Cc3ccccc3Cl)[C@@H]2c2ccc(CO)cc2)cc1	Y
O=C1NC(=O)C2C1C=CC(C(O)C(c1ccccc1)c1ccccc1)N2Nc1ccc(Cl)cc1Cl (stereo not drawn)	Y
COCCCNC(=O)C1N=C(c2ccc(OCCCO)cc2)N(c2ccccc2)O1 (stereo not drawn)	N
CN(C)CCCC[C@@H]1NC(=O)[C@H]2C[C@@H](C(=O)NCCCCCNC(=O)CS)[C@@H](c3cccc(OCCO)c3)N2C1=O	N

Is z-score at least -0.4? Consider `CN(C)CCCCCCNC(=O)[C@@H]1C[C@@H]2C(=O)N[C@@H](CCCCN)C(=O)N2[C@@H]1c1cccc(OCCO)c1`
N

Is z-score at least -0.4? Consider [N-]=[N+]=NCc1ccccc1C[C@@]1(C(=O)NCC(O)CO)N=C(c2ccc(OCCCO)cc2)O[C@@H]1c1ccccc1N=[N+]=[N-] (stereo partly drawn)
N

Is z-score at least -0.4? Consider `COc1ccc(C(=O)Nc2ccc(CN3C(=O)[C@@]4(O[C@@H](CC(=O)N5CCC[C@H]5CO)[C@H]([Si](C)(C)c5ccc(OC)cc5)[C@H]4C)c4ccccc43)cc2)cc1`
N

Is z-score at least -0.4? Consider `CN(C)CCCNC(=O)[C@@]1(C)c2ccccc2C(=O)N(Cc2cc(F)cc(C(F)(F)F)c2)[C@H]1c1ccc(CO)cc1`
Y

Is z-score at least -0.4? Consider CN1C(=O)C2C=CC(C(O)c3ccc(-c4ccccc4)s3)N(N(c3ccccc3)c3ccccc3)C2C1=O (stereo not drawn)
Y

Origin of measurements: PubChem BioAssay
